Hello, the source for this data is ChEMBL document CHEMBL1140241, in case you need it.

# Organism: Rattus norvegicus
# experiment: In vitro inhibition of ADP-induced platelet aggregation in rat platelet rich plasma
# Type: functional
outcome-measure: IC50 (nM)

(A) O=C([O-])COc1cccc2c1CCC[C@H]2N1CCC[C@@H]1c1nc(-c2ccccc2)c(-c2ccccc2)o1.[Na+]
(B) O=C(O)COc1cccc(C[C@@H]2CCCC=C2c2nc(-c3ccccc3)c(-c3ccccc3)o2)c1
Exercise: Lower value for measured IC50? Options: A , B Which one? Tell me its label.
Key: A
(A: 630 nM, B: 1200 nM)

(P) O=C(O)COc1cccc2c1CCC[C@@H]2N1CCC[C@H]1c1nc(-c2ccccc2)c(-c2ccccc2)o1
(Q) O=C(O)COc1cccc2c1CCC[C@H]2NCc1nc(-c2ccccc2)c(-c2ccccc2)o1
Exercise: Lower value for measured IC50? Options: P , Q Which one? Tell me its label.
Key: P
(P: 2200 nM, Q: 5000 nM)

* * *

# experiment: Maximum (peak) plasma drug concentration after peroral administration at a dose of 0.032 mg/kg in dog
# Assay type: ADME, organism-based, Canis lupus familiaris
# Design: dose 0.032 mg/kg, route oral
# condition: po
outcome-measure: Cmax (ng/mL)
Entry rule: numbers only, all in ng/mL.

Value of Cmax reported for the compound `O=C([O-])COc1cccc2c1CCC[C@H]2N1CCC[C@@H]1c1nc(-c2ccccc2)c(-c2ccccc2)o1.[Na+]` is 61.2

* * *

# experiment: Area Under Plasma concentration-time curve after peroral administration at a dose of 0.032 mg/kg in dog
# Type: ADME, organism-based, Canis lupus familiaris
# Set-up: dose 0.032 mg/kg, route oral
# condition: po
outcome-measure: AUC (ng·h/mL)
Entry rule: numbers only, all in ng·h/mL.

Value of AUC reported for the compound `O=C([O-])COc1cccc2c1CCC[C@H]2N1CCC[C@@H]1c1nc(-c2ccccc2)c(-c2ccccc2)o1.[Na+]` is 327

* * *

# Species: Rattus norvegicus
# experiment: In vitro inhibition of ADP-induced platelet aggregation in rat platelet rich plasma
# Assay type: functional
Readings of IC50 for the listed compounds

O=C(O)COc1cccc2c1CCC[C@H]2N1CCC[C@H]1c1nc(-c2ccccc2)c(-c2ccccc2)o1    > 10 µM
O=C(O)COc1cccc2c1CCC[C@@H]2N1CCC[C@@H]1c1nc(-c2ccccc2)c(-c2ccccc2)o1    > 10 µM

Now look at this one.
Value of IC50 reported for the compound O=C(O)COc1cccc2c1CCCC2CCc1nc(-c2ccccc2)c(-c2ccccc2)o1 (stereo not drawn) is > 10 µM
